Test: NCI Yeast Anticancer Drug Screen. Data for the mgt1 strain (AID 153)
Conditions: S. cerevisiae mgt1 mutant growth inhibition; at 11.0 µM; hits give high values
Compounds without any hit were thinned out: in the full panel of roughly 79,000, 15% have a hit.
I'd be grateful if you could share measured growth inhibition for these entries.
Numbers only, in %.

Here's what some known entries look like.
>>> df
                                   molecule     endpoint_label  assay_result
0  O=C(NNc1ccnc2cc(Cl)ccc12)/C(=C\c1ccccc1Cl)NC(=O)c1ccccc1  growth inhibition            32
1          NC(N)=N/N=C\c1c2ccccc2cc2ccccc12  growth inhibition           -34
2                      NNc1c(F)c(F)cc(F)c1F  growth inhibition           -17
3  CN(C)CCOc1ccc2c(c1)C/C(=C/c1ncc([N+](=O)[O-])n1C)C2=O  growth inhibition            29
4                     CCCCCCCCCCCC(=O)N(C)C  growth inhibition            18
5  CCCCCCCCCCCCCCCCCCN(C)CC(COP(=O)([O-])OCC[N+](C)(C)C)OC (stereo not drawn)  growth inhibition            97
6  CC1(C)C(=O)OC(n2cc(F)c(=O)[nH]c2=O)C1=O (stereo not drawn)  growth inhibition            34
7  O=C(OCC=C1CCCC1)c1cc([N+](=O)[O-])cc([N+](=O)[O-])c1  growth inhibition            16
8  CCOC(=O)c1cc(-c2ccc(Cl)cc2)c([N+](=O)[O-])n1C  growth inhibition             1
9                     CCCCCCCCCC/C=C\C(=O)O  growth inhibition           -22

# batch size: 3; output growth inhibition per entry
1. COc1ccc(-c2cn(-c3ccc(I)cc3)c3ncnc(N)c23)cc1
2. O=C1C=CC(=C(c2ccccc2)c2ccccc2)c2ccccc21
3. COC(=O)c1ccc(NCC2=CC(=O)C=CC2=O)cc1O

1: -11; 2: -1; 3: 77

* * *

Test: NCI Yeast Anticancer Drug Screen. Data for the rad50EPP+ strain (AID 151);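 also: 0% = growth of vehicle-treated control cultures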
Conditions: S. cerevisiae rad50 mutant strain, at 11.0 µM
Method: Growth inhibition of yeast strains with defined genetic alterations is measured as a screen for potential anti-cancer activity. Selected strains with alterations in DNA damage repair or cell cycle control were exposed to compounds and growth inhibition was measured relative to vehicle treated controls. The strain used in this assay is rad50EPP+
About 79,000 compounds went through this panel and 15% of them were active in at least one assay; those are over-represented in the sample as a whole. Active and inactive are the calls of the source. Cut-off read from the data, not from the text of the source: active = growth inhibition above about 70%; inactive = the rest.
Choose one outcome from this list and give only that: active, inactive

Outcome? Cc1ccc(NN(NC(=O)OC(C)C)C(=O)OC(C)C)cc1
inactive

Short answer needed: outcome of this test for C/C(=N\NC(=S)SCc1ccccc1)c1ccccn1 ?
active

Please let me know the test result on file for CC(/C=C/c1ccc(Cl)cc1)=N\NC(=S)NCC(C)C .
inactive

Per the records of this test, what outcome belongs to COc1ccc2nc3cccc([N+](=O)[O-])c3c(NCCN(CCO)CCO)c2c1 ?
inactive

What outcome does the record of this test show for Cc1cc(I)ccc1N ?
inactive

Identify the outcome logged in this assay for the compound shown: Cc1ccc(Nc2nc3c(=O)n(C)c(=O)n(C)c3nc2Nc2ccc(C)cc2)cc1
inactive

So what was the verdict on CCCCN(CCCC)CCSc1ccc(Cl)cc1 in this test?
inactive
